Below, each entry is listed with its recorded inhibition zone (IZ).
test system: Streptococcus pyogenes; test: Antibacterial activity against Streptococcus pyogenes measured at MIC after 18 hrs by halo zone test; format: functional
Give just the number in mm; leave the unit off.

Reference set, count: 4
[
  {
    "compound": "Cc1ccccc1NC(=S)N/N=C/c1cc2cccc(C)c2nc1Cl",
    "inhibition zone (IZ) [mm]": 18.81
  },
  {
    "compound": "CC(=O)N1N=C(N(C(C)=O)C2CCCCC2)SC1c1cc2ccccc2nc1Cl (stereo not given)",
    "inhibition zone (IZ) [mm]": 17.38
  },
  {
    "compound": "CC(=O)N1N=C(N(C(C)=O)C2CCCCCCC2)SC1c1cc2ccccc2nc1Cl (stereo not given)",
    "inhibition zone (IZ) [mm]": 14.33
  },
  {
    "compound": "CC(=O)N1N=C(N(C(C)=O)C2CCCC2)SC1c1cc2cccc(Cl)c2nc1Cl (stereo not given)",
    "inhibition zone (IZ) [mm]": 14.15
  }
]

Please turn your attention to the following entry.
What value of measured inhibition zone (IZ) is listed for Cc1ccc(NC(=S)N/N=C/c2cc3ccccc3nc2Cl)cc1 ?
17.43

----------
tested on: Salmonella typhimurium; experiment: Antibacterial activity against Salmonella Typhimurium after 18 hrs by macro-dilution test; type: functional, Salmonella enterica subsp. enterica serovar Typhimurium; details: Salmonella enterica
value kind: MIC
Remember to follow the number with its unit.

Reference set, count: 4
[
  {
    "compound": "CC(=O)N(C1=NN(C(C)=O)C(c2cc3cccc(Cl)c3nc2Cl)S1)c1ccccc1C (stereo not given)",
    "measured target": "Salmonella typhimurium",
    "assay result": "32 µg/mL"
  },
  {
    "compound": "NC(=S)N/N=C/c1cc2cccc(Cl)c2nc1Cl",
    "measured target": "Salmonella typhimurium",
    "assay result": "128 µg/mL"
  },
  {
    "compound": "Cc1ccccc1NC(=S)N/N=C/c1cc2ccccc2nc1Cl",
    "measured target": "Salmonella typhimurium",
    "assay result": "64 µg/mL"
  },
  {
    "compound": "Fc1ccc(F)c(NC(=S)N/N=C/c2cc3ccccc3nc2Cl)c1",
    "measured target": "Salmonella typhimurium",
    "assay result": "32 µg/mL"
  }
]

Please turn your attention to the following entry.
Any idea what MIC came out for CC(=O)N(C1=NN(C(C)=O)C(c2cc3cccc(Cl)c3nc2Cl)S1)c1ccc(C)cc1 (stereo not given) on Salmonella typhimurium?
64 µg/mL

----------
Below, each entry is listed with its recorded MIC.
tested on: Salmonella typhimurium; assay: Antibacterial activity against Salmonella Typhimurium after 18 hrs by macro-dilution test; type: functional, Salmonella enterica subsp. enterica serovar Typhimurium; conditions: Salmonella enterica
Remember to follow the number with its unit.

Reference set, count: 5
[
  {
    "compound": "S=C(N/N=C/c1cc2cccc(Cl)c2nc1Cl)NC1CCCCC1",
    "MIC": "256 µg/mL"
  },
  {
    "compound": "O=[N+]([O-])c1ccc(NC(=S)N/N=C/c2cc3ccccc3nc2Cl)cc1",
    "MIC": "256 µg/mL"
  },
  {
    "compound": "CC(=O)N1N=C(N(C(C)=O)C2CCCCC2)SC1c1cc2cccc(Cl)c2nc1Cl (stereo not given)",
    "MIC": "256 µg/mL"
  },
  {
    "compound": "Cc1cccc2cc(/C=N/NC(=S)NC3CCCCCCC3)c(Cl)nc12",
    "MIC": "128 µg/mL"
  },
  {
    "compound": "CC(=O)N1N=C(N(C(C)=O)C2CCCC2)SC1c1cc2cccc(C)c2nc1Cl (stereo not given)",
    "MIC": "128 µg/mL"
  }
]

What value of measured MIC is listed for S=C(N/N=C/c1cc2ccccc2nc1Cl)NC1CCCC1 ?
128 µg/mL

What value of measured MIC is listed for CC(=O)N(C1=NN(C(C)=O)C(c2cc3cccc(Cl)c3nc2Cl)S1)c1ccc([N+](=O)[O-])cc1 (stereo not given) ?
32 µg/mL

What value of measured MIC is listed for CC(=O)NC1=NN(C(C)=O)C(c2cc3cccc(Cl)c3nc2Cl)S1 (stereo not given) ?
64 µg/mL

What value of measured MIC is listed for Cc1ccc(NC(=S)N/N=C/c2cc3cccc(Cl)c3nc2Cl)cc1 ?
32 µg/mL

What value of measured MIC is listed for CC(=O)N1N=C(N(C(C)=O)C2CCCCCCC2)SC1c1cc2ccccc2nc1Cl (stereo not given) ?
64 µg/mL
